Data credit: PubChem BioAssay AID624337

Potency for assorted compounds
# assay_procedure: Quantitative high throughput screen for delayed death inhibitors of the malarial parasite plastid: Hit Validation with Dd2 at 96hr using Flow Cytometry
# assay_context: P. falciparum Dd2 growth
Records with an inconclusive call do not appear. The source made the active and inactive calls. The call rests on the fitted dose curve; in most records, active means well fitted curve in the direction sought with a large enough effect; inconclusive means small, poorly fitted or top-dose-only effect; inactive means flat fitted curve, though single readings scatter.
value_type: Potency

compound: CN(C)c1ccc(CN(C(=O)c2ccccc2Br)C2CCS(=O)(=O)C2)cc1 (stereo not given)
result: 29.1 µM (active)
//
compound: COc1ccc(Nc2nnc(-c3ccc(C)cc3)c3ccccc23)cc1C(=O)N1CCCCC1
result: 25.7 µM (active)
//
compound: COc1ccccc1N1CCN(CCC(=O)Nc2ccc(F)cc2)CC1
result: 8.91 µM (active)
//
compound: CCOC(=O)c1ccc2c(c1)n(CC)c(/C=C/N(C)c1ccccc1)[n+]2CC
result: 0.185 µM (active)
//
compound: CC(=O)NC[C@@H]1CN(c2ccc(N3CCOCC3)c(F)c2)C(=O)O1
result: 18 µM (active)
//
compound: COc1cccc(CN2CCN(c3nc4nonc4nc3N3CCCCC3)CC2=O)c1
result: 5.78 µM (active)
//
compound: COc1ccc(CNC(=O)C2CCC(CNS(=O)(=O)c3cccc4cccnc34)CC2)cc1 (stereo not given)
result: 38.9 µM (active)
//
compound: CCCCOc1ccc(N2C(N)=NC(N)=NC23CCCCC3)cc1
result: 4.34 µM (active)
//
compound: c1csc(CNc2ncnc3nc[nH]c23)c1
result: 31.3 µM (active)
//
compound: CCCCN(CCCNC(=O)c1ccc(CS(=O)(=O)c2ccc(OC)cc2)o1)Cc1ccccc1
result: 1.66 µM (active)

----------
# assay_procedure: Quantitative high throughput screen for delayed death inhibitors of the malarial parasite plastid: Hit Validation with Dd2 at 96hr using Flow Cytometry
# assay_context: P. falciparum Dd2 growth
Results filed as inconclusive are left out. Activity calls are given as the source filed them. Calls follow the shape of the dose curve; as a rule, active = well fitted curve in the direction sought with a large enough effect; inconclusive = small, poorly fitted or top-dose-only effect; inactive = flat fitted curve, though single readings scatter.
Labels: active, inactive

structure_notation: Cc1ccc(CN2CCC(n3nccc3NC(=O)c3ccccc3C)CC2)o1
label_value: active
//
structure_notation: COCCNC(=O)c1cccc(OC2CCN(Cc3cccc(SC)c3)CC2)c1
label_value: inactive
//
structure_notation: Clc1ccc(-c2c[n+](Cc3ccc(Cl)cc3Cl)c3n2CCCCC3)cc1
label_value: active
//
structure_notation: Cc1ccc(S(=O)(=O)Nc2ccc(C(=O)Nc3ccncc3)cc2)cc1
label_value: active
//
structure_notation: N#Cc1cccc(NC(=O)Cn2c3[n+](c4ccc(C(F)(F)F)cc42)CCCCC3)c1
label_value: active
//
structure_notation: CCc1nc(SCC(=O)Nc2ccc(N(C)C)cc2)n[nH]1
label_value: active
//
structure_notation: CCOc1ccc(NC(=O)C[n+]2ccc(N(C)C)cc2)cc1
label_value: active
//
structure_notation: O=C(Nc1ccccc1N1CCOCC1)c1cccc(S(=O)(=O)N2CCOCC2)c1
label_value: active
